# Tested on: TK-10 renal
# assay_details: NCI-60 one-dose screen, 48 h (100 = growth as untreated, 0 = no growth, -100 = all killed)
# experimental_setup: 10 µM unless noted
Compounds without any hit were thinned out: in the full panel of roughly 83,000, 20% have a hit.
The compounds listed here are annotated with their growth.

- compound: "Nc1ncnc2c1N=C(c1ccc3c(c1)OCO3)CC(c1cccc(Nc3ccnc4cc(Cl)ccc34)c1)N2 (centres undefined)"
  assay_target: "TK-10 renal"
  growth / %: 65.7
- compound: "CC(C)(C)n1cc(-c2ccnc(NCCCNS(=O)(=O)c3ccc(F)cc3)c2)c(-c2cccc(F)c2)n1"
  assay_target: "TK-10 renal"
  growth / %: 97.7
- compound: "COc1ccc2nc(NC(=O)CSc3nnc4n3S(=O)(=O)c3ccccc3N4C)sc2c1"
  assay_target: "TK-10 renal"
  growth / %: 140
- compound: "CC(=O)OCc1nc(C#N)c(N(C)C)o1"
  assay_target: "TK-10 renal"
  growth / %: 84.1

====

# Tested on: LOX IMVI melanoma
# assay_details: NCI-60 one-dose screen, 48 h (100 = growth as untreated, 0 = no growth, -100 = all killed)
# experimental_setup: 10 µM unless noted
Compounds without any hit were thinned out: in the full panel of roughly 83,000, 20% have a hit.
The molecules listed here are annotated with their growth.

- molecule: "CN(C)CCCC1(c2ccc(F)cc2)OCc2cc(-c3cncc4ccccc34)ccc21 (centres undefined)"
  growth, %: 19.3
- molecule: "COc1ccc(C(=O)Nc2ncc(Cc3ccc(F)cc3)s2)cc1"
  growth, %: 20
- molecule: "C=CCn1c(SCC(=O)Nc2ccc(C(=O)/C=C/c3cc4cc(OC)ccc4nc3Cl)cc2)nnc1-c1ccc(Br)cc1"
  growth, %: 82.6
- molecule: "COc1ccc(/C=C2\\COc3ccc(O)cc3C2=O)c(OC)c1OC"
  growth, %: 44.3

====

# System: HCC-2998 colon
# assay_details: NCI-60 one-dose screen, 48 h
# experimental_setup: 10 µM unless noted
Compounds without any hit were thinned out: in the full panel of roughly 83,000, 20% have a hit. Activity calls are given as the source filed them. The calls were made as follows: active = growth percent below 10; inactive = the rest.
Possible outcomes: class 1 (active), class 0 (inactive)

- compound: "COc1ccc2c(O)c(/C=C3\\N=Nc4ccccc43)oc2c1C[C@@H]1CCNC[C@H]1F"
  class_assignment: "class 0"
- compound: "O=C(O)CNC1=C(Cl)C(=O)c2ccccc2C1=O"
  class_assignment: "class 0"
- compound: "COc1ccc2cc(-c3ccc(NC(C)=O)c(=O)o3)ccc2c1"
  class_assignment: "class 0"
- compound: "CC(C)(C)[Si](C)(C)O[C@H]1C(=O)C=CN2CC=C[C@@H]12"
  class_assignment: "class 0"
- compound: "N#CC1CCc2c(c(-c3cn[nH]c3C(F)(F)F)nc3c(F)cc4[nH]ncc4c23)C1 (stereo not drawn)"
  class_assignment: "class 0"
- compound: "COCCNC(=O)c1ccc(-c2nc3ccc4[nH]ncc4c3c3c2CCCC3)cc1"
  class_assignment: "class 0"
- compound: "COc1ccc(-c2cn(-c3cc(OC)c(OC)c(OC)c3)c(=O)n2C(C)=O)cc1"
  class_assignment: "class 0"
- compound: "COc1cccc([C@H]2c3[nH]c4ccccc4c3C[C@H]3C(=O)N(CCCCCCC(=O)NO)CC(=O)N23)c1"
  class_assignment: "class 0"
- compound: "O=C(c1ccc(-c2nc(CSc3nc4ccccc4s3)no2)cc1)N1CCSCC1"
  class_assignment: "class 0"
- compound: "COc1ccc(C2c3sc4c(F)cccc4c3Oc3nc[nH]c(=O)c32)cc1 (stereo not drawn)"
  class_assignment: "class 0"
- compound: "COC(=O)[C@]1(C)CCC[C@]2(C)[C@H]3C[C@H]4C(C(C)C)=C[C@]3(CC[C@H]21)[C@H]1[C@@H]4[C@@H](OCCC#N)CC[C@@H]1OCCC#N"
  class_assignment: "class 0"
- compound: "COP(=O)(OC)C(C)(C)CC(=O)CC(C#N)(C#N)C(C#N)C#N"
  class_assignment: "class 0"
- compound: "Cc1cc(Cl)ccc1NC(=O)c1cc2ccccc2cc1O"
  class_assignment: "class 0"
- compound: "CN(CCn1sc(=O)n(Cc2ccccc2)c1=O)Cc1ccc2c(Cl)cc(Cl)c(O)c2n1"
  class_assignment: "class 0"
- compound: "O=C(/C=C(/C=C/c1cccc2[nH]ccc12)OB(F)F)/C=C/c1cccc2[nH]ccc12"
  class_assignment: "class 1"
- compound: "CC1(c2ccccc2O)NN=C(/N=C/c2cccc([N+](=O)[O-])c2)N1C(Cc1c[nH]c2ccccc12)C(=O)O (stereo not drawn)"
  class_assignment: "class 0"
- compound: "O=C(NCc1ccccc1)Nc1ccccc1CNc1nc(Nc2ccc(OCCN3CCCC3)cc2)ncc1Cl"
  class_assignment: "class 0"
- compound: "N#Cc1c(-c2ccccc2)cc(-c2ccccc2)n(CCCCCC(=O)Nc2ccccc2N)c1=O"
  class_assignment: "class 0"
- compound: "C=C1C(=O)O[C@H]2[C@H]1CC/C(COC(=O)CSCCSCC(=O)OC/C1=C/CC[C@@]3(C)O[C@H]3[C@H]3OC(=O)C(=C)[C@@H]3CC1)=C\\CC[C@@]1(C)O[C@@H]21"
  class_assignment: "class 0"
- compound: "CCN(CC)CCSc1nc(-c2ccccc2)c(C#N)c(=O)[nH]1"
  class_assignment: "class 1"
- compound: "O=CC1(C2(C=O)c3ccccc3-c3ccccc32)c2ccccc2-c2ccccc21"
  class_assignment: "class 1"
- compound: "COc1ccc(-c2nnc(-c3ccc4c(c3)nc(-c3ccncc3)n4C3CCCCC3)o2)cc1"
  class_assignment: "class 0"
- compound: "CCCCCCCCCCCCCCCCCCOc1ccccc1CC(=O)OCC[N+]1(C)CCCC1"
  class_assignment: "class 1"
